assayed system: HLA-A*02 (human)
test: UV-exchange b2m ELISA
readout: peptide exchange yield

[[record]]
binder = "AVIKFLELL"
measurement = "50 to 75%"

[[record]]
binder = "SLADYEHFV"
measurement = "> 75%"

[[record]]
binder = "VLNPLITAV"
measurement = "50 to 75%"

[[record]]
binder = "FLAVGLVDV"
measurement = "50 to 75%"

[[record]]
binder = "TVFTDHMLTV"
measurement = "20 to 49%"

[[record]]
binder = "AMIEEVFEA"
measurement = "20 to 49%"

[[record]]
binder = "FLLPFSTVYL"
measurement = "50 to 75%"

[[record]]
binder = "VLNDILVRA"
measurement = "50 to 75%"


src = patent US20170165338A1
